# system.tested: CSNK1A1L (human) (UniProt Q8N752)
# Sequence (Q8N752 whole entry, looked up): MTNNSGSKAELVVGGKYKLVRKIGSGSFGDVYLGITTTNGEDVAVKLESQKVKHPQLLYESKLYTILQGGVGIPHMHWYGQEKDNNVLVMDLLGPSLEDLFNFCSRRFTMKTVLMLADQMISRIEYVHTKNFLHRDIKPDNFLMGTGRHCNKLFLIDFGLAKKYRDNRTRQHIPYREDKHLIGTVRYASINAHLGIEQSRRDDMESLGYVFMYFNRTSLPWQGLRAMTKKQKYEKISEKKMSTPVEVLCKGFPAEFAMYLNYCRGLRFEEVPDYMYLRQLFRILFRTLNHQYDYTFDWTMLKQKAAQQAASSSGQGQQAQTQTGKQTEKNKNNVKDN
# assay.notes: KINOMEscan competition binding
# experimental.conditions: compound 10.0 µM
measured.parameter: kinase still bound, per cent of control

>>> experimental_value("CCS(=O)(=O)Nc1ccc2c(c1)[C@H](/C(=N/c1ccc(CN3CCCCC3)cc1)c1ccccc1)C(=O)N2")
"no effect (inactive)"
>>> experimental_value("CC(=O)c1c(-c2ccncc2)[nH]c(-c2ccncc2)c1C")
"0%"
>>> experimental_value("N#Cc1ccc(-c2cnc3[nH]cc(NC(=O)c4cccnc4)c3c2)cc1")
"no effect (inactive)"
>>> experimental_value("Cc1ccc(C(=O)Nc2cccc(C(C)(C)C)c2)cc1-c1ccc(C(=O)NCC2CC2)cc1")
"no effect (inactive)"
